# System: SJSA-1 cells
# RUN_DESCRIPTION: Cell lysis by peptidomimetic macrocycles (LDH release)
# Format: cell-based
# TEST_CONTEXT: 50 μM, SJSA-1, 1 h
# Method: SJSA-1 cells were plated out one day in advance in clear flat-bottom plates (Costar, catalog number 353072) at 7500 cells/well with 100 ul/well of growth media, leaving row H columns 10-12 empty for media alone. On the day of the assay, media was exchanged with RPMI 1% FBS media, 90 uL of media per well. […] Cell plates were incubated for 1 hour at 37° C. […] LDH release is measured using the LDH cytotoxicity assay kit from Caymen, catalog #1000882.
Bridge positions count the residues as written; N and C are the ends. Square brackets hold non-standard residues; d marks the D form. Peptide text beside a SMILES is read from it. R8 = C=CCCCCCC[C@@](C)(N)C(=O)O; S5 = C=CCCC[C@](C)(N)C(=O)O
# maps each entry to its 50 μM % Lysed cells (1 h LDH)
Reply numerically in %, unit not repeated.

CC(=O)N[C@@H](CC(C)C)C(=O)N[C@H](C(=O)N[C@@H](Cc1ccccc1)C(=O)N[C@]1(C)CCCCCCC=CCCC[C@@](C)(C(=O)N[C@@H](C)C(=O)N[C@@H](C)C(=O)N[C@@H](C)C(=O)N[C@@H](C)C(=O)N[C@@H](C)C(=O)N[C@@H](C)C(=O)N[C@H](C)C(N)=O)NC(=O)[C@H](CC(C)C)NC(=O)[C@H](CCC(N)=O)NC(=O)[C@H](C)NC(=O)[C@H](Cc2c[nH]c3ccccc23)NC(=O)[C@H](Cc2ccc(O)cc2)NC(=O)[C@H](C)NC1=O)[C@@H](C)O (single isomer, unassigned) [compound 316] | 1
CC[C@H](C)[C@H](NC(=O)[C@H](C)NC(=O)[C@H](C)NC(=O)[C@]1(C)CCCC=CCCCCCC[C@@](C)(NC(=O)[C@H](Cc2ccccc2)NC(=O)[C@@H](NC(=O)[C@H](CC(C)C)NC(C)=O)[C@@H](C)O)C(=O)N[C@@H](C)C(=O)N[C@@H](Cc2c[nH]cn2)C(=O)N[C@@H](Cc2c[nH]c3ccccc23)C(=O)N[C@@H](C)C(=O)N[C@@H](CCC(N)=O)C(=O)N[C@@H](CC(C)C)C(=O)N1)C(=O)N[C@H](C)C(N)=O [compound 170] (Ac-LTF[R8]AHWAQL[S5]AAI[dA]-NH2; staple 4-11) | −1

Okay, now this compound:
Q: // query 50 μM % Lysed cells (1 h LDH) value for entry CC(=O)N[C@@H](CC(C)C)C(=O)N[C@H](C(=O)N[C@@H](Cc1ccccc1)C(=O)N[C@]1(C)CCCCCCC=CCCC[C@@](C)(C(=O)N[C@@H](CO)C(=O)N[C@@H](C)C(=O)N[C@@H](C)C(N)=O)NC(=O)[C@H](CC2CCC2)NC(=O)[C@H](CCC(N)=O)NC(=O)[C@H](C)NC(=O)[C@H](Cc2c[nH]c3ccccc23)NC(=O)[C@H](Cc2ccc(O)cc2)NC(=O)[C@H](CCC(=O)O)NC1=O)[C@@H](C)O (single isomer, unassigned)
Ans: 3
